Tested on: NOMO1
ASSAY REMARKS: cell viability relative to DMSO control; higher = less cytotoxic
ASSAY CONDITIONS: HPLM + 10% dialyzed FBS; 48 h; 0.00702 µM
Would you mind telling me the reported cell viability of each entry?
Answers are plain numbers, in %.

COMPOUND: CCCCC(C=O)NC(=O)C(CC(C)C)NC(=O)OCc1ccccc1 (configuration not stated)
READOUT NAME: cell viability
RESULT VALUE: 86.4

Each of the following entries comes with a recorded value; kindly state cell viability for each.
1. CCCCCCCCCC(=O)N[C@@H](Cc1c[nH]c2ccccc12)C(=O)N[C@H](CC(N)=O)C(=O)N[C@@H](CC(=O)O)C(=O)N[C@@H]1C(=O)NCC(=O)N[C@@H](CCCN)C(=O)N[C@@H](CC(=O)O)C(=O)N[C@H](C)C(=O)N[C@@H](CC(=O)O)C(=O)NCC(=O)N[C@H](CO)C(=O)N[C@@H]([C@@H](C)CC(=O)O)C(=O)N[C@@H](CC(=O)c2ccccc2N)C(=O)O[C@@H]1C
2. O=C(Cc1ccc(-c2ccc(OCCN3CCOCC3)cc2)cn1)NCc1ccccc1
3. CC(C)c1cc(C(=O)N2Cc3ccc(CN4CCN(C)CC4)cc3C2)c(O)cc1O
4. O=C(Nc1ncc(SCCN2CCCC2)s1)[C@]1(c2ccc([S+](=O)([O-])C3CC3)cc2)C[C@H]1C1CCCCC1
5. Cc1[nH]c(/C=C2\C(=O)Nc3ccccc32)c(C)c1CCC(=O)O
6. COC[C@H](c1ccc(C(F)(F)F)cc1)N1CCN(C2(C)CCN(C(=O)c3c(C)ncnc3C)CC2)C[C@H]1C.O=C(O)/C=C\C(=O)O

Output:
[118, 123, 109, 110, 108, 106]

----------
Test system: NOMO1
ASSAY REMARKS: AUC of viability dose-response curve (% viability x log10 dose units); higher = less sensitive
ASSAY CONDITIONS: HPLM + 10% dialyzed FBS; 48 h
Note to self: use MET only for AUC of viability dose-response curve readings below 400; a reading exactly at 400 still gets NOT MET.

COMPOUND: Cn1cc(/C=C2\C(=O)Nc3cccnc32)c2ccccc21
ANSWER LABEL: NOT MET
//
COMPOUND: COc1cccc([C@@H](C)NCCCc2ccccc2Cl)c1
ANSWER LABEL: NOT MET
//
COMPOUND: CN1\C(=C(\O)C2=C(C=CC=C2)[S+]1([O-])=O)C(=O)NC3=CC=CC=N3
ANSWER LABEL: NOT MET
//
COMPOUND: CC(C)c1cc(C(=O)N2Cc3ccc(CN4CCN(C)CC4)cc3C2)c(O)cc1O
ANSWER LABEL: MET
//
COMPOUND: OC(=O)C(CC/1=C/C(=O)NC2=CC=CC=C12)NC(=O)C3=CC=C(Cl)C=C3 (stereo not given)
ANSWER LABEL: NOT MET
//
COMPOUND: NCCCCNCCCN
ANSWER LABEL: NOT MET
//
COMPOUND: COc1cc2nc(N3CCN(C(=O)C4CCCO4)CC3)nc(N)c2cc1OC (stereo not given)
ANSWER LABEL: NOT MET
//
COMPOUND: CC(=O)Nc1ccc(O)cc1
ANSWER LABEL: NOT MET
//
COMPOUND: CC(C)(C)c1cnc(CSc2cnc(NC(=O)C3CCNCC3)s2)o1
ANSWER LABEL: MET

# ---- query compound ----
Input: Find out if reported AUC of viability dose-response curve for `CN(C)CCN(C)C(=O)c1ccc(NC(=O)Nc2ccc(-c3nc(N4CCOCC4)c4ccn(CC(F)(F)F)c4n3)cc2)cc1` is less than 400
Output: MET

----------
Would you mind telling me the reported cell viability of each entry?
System: NOMO1
ASSAY REMARKS: cell viability relative to DMSO control; higher = less cytotoxic
ASSAY CONDITIONS: RPMI 5 mM glucose + 10% dialyzed FBS; 48 h; 0.0211 µM
Answers are plain numbers, in %.

Examples with answers:
MOLECULE: COc1ccc(C2Sc3ccccc3N(CCN(C)C)C(=O)C2OC(C)=O)cc1 (stereo not drawn)
UNIT LABEL: %
cell viability: 107
//
MOLECULE: COc1cccc([C@@H](C)NCCCc2ccccc2Cl)c1
UNIT LABEL: %
cell viability: 84.4
//
MOLECULE: CC(/C=C/C(=O)NO)=C\[C@@H](C)C(=O)c1ccc(N(C)C)cc1
UNIT LABEL: %
cell viability: 114
//
MOLECULE: COC[C@H](c1ccc(C(F)(F)F)cc1)N1CCN(C2(C)CCN(C(=O)c3c(C)ncnc3C)CC2)C[C@H]1C.O=C(O)/C=C\C(=O)O
UNIT LABEL: %
cell viability: 104

Each of the following entries comes with a recorded value; kindly state cell viability for each.
1. COc1cc2nc(-c3cc(F)ccc3O)nc(N[C@@H]3CNC[C@H]3C(C)(C)O)c2cc1OC
2. C[S+](=O)([O-])c1cccc(CNc2nc(Nc3ccc4c(c3)CCC(=O)N4)ncc2C(F)(F)F)c1

Output:
1. 118
2. 129

Each of the following entries comes with a recorded value; kindly state cell viability for each.
1. CN(C)CCN(C)C(=O)c1ccc(NC(=O)Nc2ccc(-c3nc(N4CCOCC4)c4ccn(CC(F)(F)F)c4n3)cc2)cc1
2. O=C1Nc2ccc(I)cc2/C1=C/c1cc(Br)c(O)c(Br)c1

Output:
[121, 92.8]

----------
Would you mind telling me the reported cell viability of each entry?
Tested on: P12-Ichikawa
ASSAY REMARKS: cell viability relative to DMSO control; higher = less cytotoxic
ASSAY CONDITIONS: HPLM + 10% dialyzed FBS; 48 h; 0.00702 µM
One number for each entry, in %.

SMI: CCC(=O)N[C@H]1CC[C@H](C(=O)N(C)c2ccc(-c3nc4ccccc4o3)cc2)C1
cell viability / %: 101

SMI: ClC1=CC\2=C(OC3=C(C=CC=C3)\N=C2N4CCNCC4)C=C1
cell viability / %: 113

SMI: C[S+](=O)([O-])c1cccc(CNc2nc(Nc3ccc4c(c3)CCC(=O)N4)ncc2C(F)(F)F)c1
cell viability / %: 112

SMI: COc1cc2nc(-c3cc(F)ccc3O)nc(N[C@@H]3CNC[C@H]3C(C)(C)O)c2cc1OC
cell viability / %: 106

// next item, cell viability requested
Input: Field request: cell viability | item: `C=CCc1cccc(/C=N/NC(=O)CN2CCN(Cc3ccccc3)CC2)c1O`
Output: 119

----------
System: P12-Ichikawa
ASSAY REMARKS: cell viability relative to DMSO control; higher = less cytotoxic
ASSAY CONDITIONS: RPMI 5 mM glucose + 10% dialyzed FBS; 48 h; 0.0211 µM
READOUT NAME: cell viability (%)
One number for each entry, in %.

Examples with answers:
COMPOUND: NC(=O)c1cccc2cn(-c3ccc([C@@H]4CCCNC4)cc3)nc12
READOUT NAME: cell viability
RESULT VALUE: 105
//
COMPOUND: CN1\C(=C(\O)C2=C(C=CC=C2)[S+]1([O-])=O)C(=O)NC3=CC=CC=N3
READOUT NAME: cell viability
RESULT VALUE: 112
//
COMPOUND: COc1ccc(C2Sc3ccccc3N(CCN(C)C)C(=O)C2OC(C)=O)cc1 (stereo not given)
READOUT NAME: cell viability
RESULT VALUE: 112

Each of the following entries comes with a recorded value; kindly state cell viability for each.
1. C[C@]12CC[C@H]3[C@@H](C\C=C/4C[C@@H](O)CC[C@]34C)[C@@H]1CCC2=O
2. COC1=CC=C(C=C1O)C/2=C/C(=O)C3=C(O2)C=C(O)C=C3O

Output:
1: 108; 2: 76.9

----------
Would you mind telling me the reported cell viability of each entry?
Test system: P12-Ichikawa
ASSAY REMARKS: cell viability relative to DMSO control; higher = less cytotoxic
ASSAY CONDITIONS: HPLM + 10% dialyzed FBS; 48 h; 15.4 µM

SMI: CCC(=O)N[C@H]1CC[C@H](C(=O)N(C)c2ccc(-c3nc4ccccc4o3)cc2)C1
cell viability: 104%

SMI: CN1CCC[C@@H]1CCO[C@](C)(c1ccccc1)c1ccc(Cl)cc1
cell viability: 109%

SMI: COC/1=C/C=C2\C(=C/C1=O)[C@H](CCC3=CC(=C(OC)C(=C23)OC)OC)NC(C)=O
cell viability: 3.18%

SMI: COc1cc2c(Nc3ccc(Br)cc3F)ncnc2cc1OCC1CCN(C)CC1
cell viability: 73.9%

// next item, cell viability requested
Input: Field request: cell viability | item: `Nc1ncnc2ccccc12`
Output: 100%

----------
Would you mind telling me the reported cell viability of each entry?
Tested on: SEM cells
ASSAY REMARKS: cell viability relative to DMSO control; higher = less cytotoxic
ASSAY CONDITIONS: RPMI 5 mM glucose + 10% FBS; 48 h; 0.19 µM

COMPOUND: ClC1=CC\2=C(OC3=C(C=CC=C3)\N=C2N4CCNCC4)C=C1
RESULT VALUE: 93.3%
//
COMPOUND: CC(C)c1ccc(Cn2ccc3c4c(N)nc(NC5CC5)nc4ccc32)cc1
RESULT VALUE: 120%
//
COMPOUND: COc1cc([C@H]2Oc3cc([C@H]4Oc5cc(O)cc(O)c5C(=O)[C@@H]4O)ccc3O[C@@H]2CO)ccc1O
RESULT VALUE: 118%
//
COMPOUND: COc1ncnc(N[S+](=O)([O-])c2ccc(N)cc2)c1OC
RESULT VALUE: 88.3%

// next item, cell viability requested
Input: Lab note: need cell viability with SEM cells for entry CC/1=C(/C(CC(=O)N1)C2=CC=C(C=C2)C(F)(F)F)C(=O)NC3=C(F)C=C4[NH]N=CC4=C3 (stereo not given) , please look it up.
Output: 92.8%
